Provide the reported interaction score of each item.
MEASURED ON: T1, 4H2618-bN
T1 chain: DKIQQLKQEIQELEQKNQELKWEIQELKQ
PROCEDURE TEXT: two-hybrid library CCNG1;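 also: natural log of median RNA to DNA barcode read ratio; higher means stronger binding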
Write no unit; give the number alone.

Enquiry: In one line, give reported interaction score of the entry DENQQLEQKNQELEQKIQELEWKIQELKQ [4H1446-bN] .
Return: -0.442

Enquiry: Complete the entry with interaction score for DENQQLKQKIQELEQKIQELEWENQELKQ [4H1828-bN]
Return: 0.00935

Enquiry: Indicate the recorded interaction score value for this binder: DKIQQLKQEIQELEQKNQELKWEIQELKQ [4H2618-bN]
Return: 0.45

Enquiry: Please indicate interaction score recorded for DENQQLEQENQELKQKIQELKWEIQELEQ [4H1257-bN]
Return: -0.173

Enquiry: Respond only with interaction score recorded for DKIQQLEQKNQELEQEIQELKWEIQELKQ [4H2442-bN]
Return: 0.706

Enquiry: Indicate the recorded interaction score value for this binder: DENQQLKQKIQELEQKNQELEWKIQELEQ [4H1845-bN]
Return: -0.877

Enquiry: Please report the measured interaction score for DKIQQLKQEIQELEQEIQELKWKNQELKQ [4H2576-bN]
Return: 0.876

Origin of values: paper PMC10397247
